Where these numbers come from: patent US20250263502A1

Molecular target: ectodomain of human CD98hc (human) (UniProt P08195)
Sequence (P08195 206-630): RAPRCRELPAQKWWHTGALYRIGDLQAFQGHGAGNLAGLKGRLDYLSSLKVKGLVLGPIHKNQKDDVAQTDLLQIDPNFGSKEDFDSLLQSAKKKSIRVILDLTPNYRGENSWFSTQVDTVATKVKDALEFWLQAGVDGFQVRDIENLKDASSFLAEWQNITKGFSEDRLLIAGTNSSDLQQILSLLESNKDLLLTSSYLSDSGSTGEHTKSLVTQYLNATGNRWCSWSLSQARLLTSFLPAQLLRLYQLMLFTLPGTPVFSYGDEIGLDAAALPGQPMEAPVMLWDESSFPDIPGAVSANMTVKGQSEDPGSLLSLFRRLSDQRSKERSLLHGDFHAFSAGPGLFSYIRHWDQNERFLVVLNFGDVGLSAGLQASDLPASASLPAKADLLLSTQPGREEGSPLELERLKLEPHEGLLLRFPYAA
Assay: ELISA, expression medium of VNAR-hFc on coated protein
Binding [relative units] (relative units) listing for selected binders.
Write the number on its own, no unit after it.

Example entries and their recorded answers appear below.
binder	numeric_readout
VNAR clone F11 fused N-terminally to human IgG1 Fc (VNAR-hFc) (Fc fusion, not shown: a dimerising Fc or GST) ARVDQTPQTITKEEGESLTINCVLRGEFYALASTSWYRKKSGSTREETISKGGRYVETVNSGSKSFSLRINDLTVEDSGTYRCNVYGYRIFSPEVKGPNDVYGDGTAVTVNA	3.03
VNAR clone G10 fused N-terminally to human IgG1 Fc (VNAR-hFc) (Fc fusion, not shown: a dimerising Fc or GST) ARVDQTPQTITKETGESLTINCVLRDSNCALSSTYWYRKKSGSTNEENISKGGRYVETVNSGSKSFSLKINDLTVEDSGTYRCKVVFKLFSGRACAGEKDVYGGGTVVTVNA	0.043
VNAR clone G12 fused N-terminally to human IgG1 Fc (VNAR-hFc) (Fc fusion, not shown: a dimerising Fc or GST) ARVDQTPQTITKETGESLTINCVLRDSNCALSSTYWYRKKSGSTNEALISKGGRYVETVNSGSKSFSLRINDLTVEDSGTYRCNVVQDLRDDCFFRDVYGGGTAVTVNA	0.044

Next binder, Binding [relative units] (relative units) to be filled in.
Query :: Returns the measured Binding [relative units] (relative units) for the input binder. Input: VNAR clone B12 fused N-terminally to human IgG1 Fc (VNAR-hFc) (Fc fusion, not shown: a dimerising Fc or GST) ARVDQTPRSVTKETGESLTINCVLRDASYALGSTCWYRKKSGSTNEESISKGGRYVETVNSGSKSFSLRINDLTVEDGGTYRCGVARGWRTLNYLCDVRTGEWSCVWRAAACGDGTAVTVNA
Result :: 0.076
